All values here come from paper PMC12766724.

For each entry below, report its Average viability (signal intensity relative to control) value.
# Test system: human keratinocytes (HaCaT)
# Assay Details: Resazurin assay, 3-day treatment
# Type: cell-based
# Condition Label: 40 µM
Lab note: record the figure alone, no unit after it.

Briefly, Average viability (signal intensity relative to control) measured for CCCOc1ccc(-c2ccc3[nH]ccc3c2)cc1 [i-13] : 0.91

Per the records, this molecule ( CCOc1cccc(-c2ccc3[nH]ccc3c2)c1 [i-9] ) has Average viability (signal intensity relative to control) equal to 0.99

Noted for Oc1cccc(-c2ccc3[nH]ccc3c2)c1 [i-3] : its Average viability (signal intensity relative to control) reads 0.93

What the record says about CC(C)c1ccc(-c2ccc3[nH]ccc3c2)cc1 [i-17] : Average viability (signal intensity relative to control) is 0.87

Measured Average viability (signal intensity relative to control), CC(C)Oc1cccc(-c2ccc3[nH]ccc3c2)c1 [i-15] : 1.01

The recorded Average viability (signal intensity relative to control) for CC(C)Oc1cc(-c2ccc3[nH]ccc3c2)ccc1Cl [i-27] is 0.48

Noted for FC(F)(F)Oc1ccc(-c2ccc3[nH]ccc3c2)cc1 [i-21] : its Average viability (signal intensity relative to control) reads 0.74

Input CCCOc1cccc(-c2ccc3[nH]ccc3c2)c1 [i-12] . Output Average viability (signal intensity relative to control): 1.06

Looking up CCOc1cc(-c2ccc3[nH]ccc3c2)ccc1Cl [i-25] , I found its Average viability (signal intensity relative to control) recorded as 0.53

Measured Average viability (signal intensity relative to control), Fc1ccc(-c2ccc3[nH]ccc3c2)cc1 [i-20] : 0.94

Form field Average viability (signal intensity relative to control), entry Clc1ccc(-c2ccc3[nH]ccc3c2)cc1 [i-19] : 0.86

* * *

# System: Arabidopsis thaliana Col-0
# Assay Details: Germination rate and phytotoxicity
# Format: in vivo
# Condition Label: 50 µM; 10 DPS
I'd appreciate it if you could supply main root length values for the items below.
Write the value in mm as a bare number.

Entry CC(C)Oc1cccc(-c2ccc3[nH]ccc3c2)c1 — recorded main root length = 35.01

Notebook: CCOc1cccc(-c2ccc3[nH]ccc3c2)c1 , main root length read as 35.05

get_value(item= Fc1ccc(-c2ccc3[nH]ccc3c2)cc1 , readout=main root length) returns 31.49

Entry CC(C)Oc1cc(-c2ccc3[nH]ccc3c2)ccc1Cl — recorded main root length = 37.27

In plain terms, CCOc1cc(-c2ccc3[nH]ccc3c2)ccc1Cl has a documented main root length of 34.25

// main root length lookup, compound = FC(F)(F)Oc1ccc(-c2ccc3[nH]ccc3c2)cc1 , result: 35.82

Per the records, this compound ( CCCOc1ccc(-c2ccc3[nH]ccc3c2)cc1 ) has main root length equal to 36.26

Noted for Clc1ccc(-c2ccc3[nH]ccc3c2)cc1 : its main root length reads 33.27

According to the records, this compound CCCOc1cccc(-c2ccc3[nH]ccc3c2)c1 displays main root length of 35.82

CC(C)c1ccc(-c2ccc3[nH]ccc3c2)cc1 has a reported main root length of 31.19

* * *

# Tested on: Skin fibroblasts (BJ)
# Assay Details: Resazurin assay, 3-day treatment
# Format: cell-based, human
# Condition Label: 10 µM; BJ
# Procedure: Skin fibroblasts (BJ) were obtained from the American Type Culture Collection (ATCC, Manassas, VA), while human keratinocytes (HaCaT) were sourced from the German Cancer Research Center in Heidelberg, Germany. […] We assessed the effect of 3-day compound treatments on cell viability using a resazurin reduction assay measuring mitochondrial activity. […] Fluorescence (ex = 570 nm, em = 610 nm) was measured after 3 h of incubation. […]
Experimental Readout: Average viability (signal intensity relative to control)
Form rule: numeric answer, no unit written next to it.

Average viability (signal intensity relative to control) recorded for this compound, Fc1ccc(-c2ccc3[nH]ccc3c2)cc1 , is 0.96

Value of Average viability (signal intensity relative to control) reported for the compound Clc1ccc(-c2ccc3[nH]ccc3c2)cc1 is 0.98

Lab note: CC(C)Oc1cc(-c2ccc3[nH]ccc3c2)ccc1Cl gave Average viability (signal intensity relative to control) of 0.92

Entry CC(C)c1ccc(-c2ccc3[nH]ccc3c2)cc1 , Average viability (signal intensity relative to control) reported as 0.9

// sample CCCOc1ccc(-c2ccc3[nH]ccc3c2)cc1 , its Average viability (signal intensity relative to control) was 0.97

* * *

# System: age unsynchronized Ditylenchus destructor
# Assay Details: Motility on WMicrotracker ONE
# Type: in vivo
# Condition Label: 100 µM group; initial (prior to the treatment)
Assignment: determine reported average activity counts for the given compounds.

Sample CCOc1cc(-c2ccc3[nH]ccc3c2)ccc1Cl ; average activity counts observed: 230

response.value for Clc1ccc(-c2ccc3[nH]ccc3c2)cc1 (field: average activity counts) = 233

Note to self: average activity counts recorded for CC(C)c1ccc(-c2ccc3[nH]ccc3c2)cc1 was 245

Notebook: CCCOc1cccc(-c2ccc3[nH]ccc3c2)c1 , average activity counts read as 235

// field: average activity counts; key: FC(F)(F)Oc1ccc(-c2ccc3[nH]ccc3c2)cc1 ; value = 221

average activity counts in this record for CCOc1cccc(-c2ccc3[nH]ccc3c2)c1 : 228

* * *

Provide the recorded average fraction of germinated seeds for the entries that follow.
# Test system: Arabidopsis thaliana Col-0
# Assay Details: Germination rate and phytotoxicity
# Type: in vivo
# Condition Label: 5 µM; 5 DPS

compound CCCOc1ccc(-c2ccc3[nH]ccc3c2)cc1 , average fraction of germinated seeds observed: 0.98

Just so you know, measured average fraction of germinated seeds for Clc1ccc(-c2ccc3[nH]ccc3c2)cc1 came out at 0.93

Memo: Fc1ccc(-c2ccc3[nH]ccc3c2)cc1 , reported average fraction of germinated seeds: 0.96

average fraction of germinated seeds measured on CC(C)Oc1cccc(-c2ccc3[nH]ccc3c2)c1 = 0.98

Notebook: CCOc1cc(-c2ccc3[nH]ccc3c2)ccc1Cl , average fraction of germinated seeds read as 0.98

According to the records, this compound CC(C)c1ccc(-c2ccc3[nH]ccc3c2)cc1 displays average fraction of germinated seeds of 0.95

average fraction of germinated seeds for CC(C)Oc1cc(-c2ccc3[nH]ccc3c2)ccc1Cl is 0.94

* * *

Please provide measured average fraction of germinated seeds for the entries that follow.
# Tested on: Arabidopsis thaliana Col-0
# Assay Details: Germination rate and phytotoxicity
# Assay type: in vivo
# Condition Label: 10 µM; 5 DPS
Output: the number by itself.

Lab note: Clc1ccc(-c2ccc3[nH]ccc3c2)cc1 gave average fraction of germinated seeds of 0.96

// CC(C)Oc1cccc(-c2ccc3[nH]ccc3c2)c1 : average fraction of germinated seeds value = 0.93

average fraction of germinated seeds measured on CC(C)c1ccc(-c2ccc3[nH]ccc3c2)cc1 = 0.98

Given item CCOc1cc(-c2ccc3[nH]ccc3c2)ccc1Cl , the value recorded as its average fraction of germinated seeds is 0.95

* * *

# System: age unsynchronized Ditylenchus destructor
# Assay Details: Motility on WMicrotracker ONE
# Assay type: in vivo
# Condition Label: 10 µM; 48 h
# Experimental: Populations of D. destructor, kindly provided by Central Institute for Supervising and Testing in Agriculture, the Ministry of Agriculture of the Czech Republic, were maintained according to the protocol previously described here. The effect of compounds on motility of H. contortus, D. destructor, and H. schachtii was evaluated using the WMicrotracker ONE platform according to previously published protocols. , […]
Provide the reported average activity counts of each item.

The compound identified as CCOc1cccc(-c2ccc3[nH]ccc3c2)c1 registered its average activity counts at 183

# compound CCCOc1cccc(-c2ccc3[nH]ccc3c2)c1 ; its average activity counts = 197

The compound listed as CC(C)c1ccc(-c2ccc3[nH]ccc3c2)cc1 has a reported average activity counts of 211

compound CCOc1cc(-c2ccc3[nH]ccc3c2)ccc1Cl , average activity counts observed: 221

* * *

Please provide measured Average viability (signal intensity relative to control) for the entries that follow.
# Test system: Skin fibroblasts (BJ)
# Assay Details: Resazurin assay, 3-day treatment
# Type: cell-based, human
# Condition Label: 20 µM; BJ
# answer = number (no unit)

# compound FC(F)(F)Oc1ccc(-c2ccc3[nH]ccc3c2)cc1 ; its Average viability (signal intensity relative to control) = 0.96

For reference, reported Average viability (signal intensity relative to control) for CCCOc1ccc(-c2ccc3[nH]ccc3c2)cc1 stands at 1

Briefly, Average viability (signal intensity relative to control) measured for CCCOc1cccc(-c2ccc3[nH]ccc3c2)c1 : 1.04

Given item CCOc1cc(-c2ccc3[nH]ccc3c2)ccc1Cl , the value recorded as its Average viability (signal intensity relative to control) is 0.9
